assay: Cytotoxicity against Chinese hamster CHO cells assessed as reduction in cell viability by MTT assay; assay type: toxicity, cell-based, Cricetulus griseus
pIC50: −log10 of the molar value.
value kind: pIC50

line_notation=O=C(N/N=C/c1ccccc1)c1cn(C2CC2)c2cc(N3CCNCC3)c(F)cc2c1=O sign== reported=4.60
line_notation=O=C(N/N=C/c1ccc([N+](=O)[O-])cc1)c1cn(C2CC2)c2cc(N3CCNCC3)c(F)cc2c1=O sign== reported=4.60
line_notation=COc1cc(/C=N/NC(=O)c2cn(C3CC3)c3cc(N4CCNCC4)c(F)cc3c2=O)cc(OC)c1OC sign== reported=4.60
line_notation=O=C(N/N=C/c1ccccc1O)c1cn(C2CC2)c2cc(N3CCNCC3)c(F)cc2c1=O sign== reported=4.60
line_notation=C[C@H]1COc2c(N3CCN(C)CC3)c(F)cc3c(=O)c(-c4nnc(S)o4)cn1c23 sign=< reported=4.30
line_notation=O=C(O)c1cn(C2CC2)c2cc(N3CCNCC3)c(F)cc2c1=O sign=< reported=3.82
line_notation=COc1ccc(/C=N/NC(=O)c2cn(C3CC3)c3cc(N4CCNCC4)c(F)cc3c2=O)cc1O sign== reported=4.60
line_notation=COc1ccccc1-c1nnc(CSc2nnc(-c3cn4c5c(c(N6CCN(C)CC6)c(F)cc5c3=O)OC[C@@H]4C)o2)o1 sign== reported=6.00
line_notation=O=C(N/N=C/c1ccc(F)cc1)c1cn(C2CC2)c2cc(N3CCNCC3)c(F)cc2c1=O sign== reported=4.60
line_notation=COc1ccc(/C=N/NC(=O)c2cn(C3CC3)c3cc(N4CCNCC4)c(F)cc3c2=O)cc1 sign== reported=4.60
line_notation=COc1ccccc1-c1nnc(CSc2nnc(-c3cn4c5c(c(N6CC[N+](C)(C)CC6)c(F)cc5c3=O)OC[C@@H]4C)o2)o1 sign== reported=6.39

Entry source: ChEMBL document CHEMBL5233217
